Source: the supplement of paper PMC12042874

Assay: amyloid nucleation score (Sup35N fusion, yeast selection) (log enrichment); library NNK1; higher = more nucleation; inactive = no reads after selection;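 also: zero at mode of non-aggregating sequences after 7 days selection at 30°C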
Mark t for reported amyloid nucleation score of 0.1 or greater; mark f for anything smaller.

substance	answer label
LLKIGVA	f
RAGIFKEYCSFATVKYVKDN	f
EFAYQV	f
VVVSNTLECSTSRVNRKVRT	f
EQNCVGVCSELNVFYGACVI	t
KYLACILCSKLLTQSNSRNI	t
YLIFKSFK	t
EDWHVDSFGFSKTSMGTRRL	t
INRCGGVPARLLLCKLGYLG	t
YLILLWWTNCRARAKERVDR	f
HSGTSCWVGIIDV	f
WSNADEFGPD	f
DIKGRLLWGDKARLNEVPLR	t
GWIVAMRKR	t
HSDVHNCFLLCRCTGYCLYS	t
FSFVSECGLAGFYPRE	t
YVEVQVIKWVMKSEVHRGAW	t
LTLVNASSSRYEMSLFFQSI	t
LFNILASFSYFAFYYLLLLS	f
VSITRVGTFIRYLFCIARCW	f
PSCILMNLEVYND	t
QRVVKVWWDTKPYVSMGSFL	t
LFGPDLSTRNPGDVSVQSAA	f
PWRAGYGRRKLLSEGDFRLS	t
TSACFFFRCCCLRS	t
FCYSTI	t
LDLINRMGNVGMLIMDCYKI	t
ANADDMLRFRGDF	t
WLVVFVDSVYARRWCELKFL	t
APHTTTLTRKSFDNGCGGFG	f
GCIWWPTDRPLLLSPAMSYS	t
VDLTLPASAVGNELCAREVG	t
YKSLDGF	t

----------
Assay: amyloid nucleation score (Sup35N fusion, yeast selection) (log enrichment); library NNK3; higher = more nucleation; inactive = no reads after selection
measure name: amyloid nucleation score

query sequence	measured result
LSMHVVFVYIGFPHMDFDGS	inactive
NHGNSDEKTFPTMEN	inactive
TWNMFDGSVRHFSIWFSARS	inactive
EFYFATRMMF	1.09
TRDQHIIYYFVEPFKIITGM	1.5
GNLLMYHGIWGTNALEDRYL	inactive
EQKGKQFEVSVDSYSTWEVG	inactive
RILPYSGSALLISTGFYHR	inactive
NLSWVLAILCCGL	1.39

----------
Experiment: amyloid nucleation score (Sup35N fusion, yeast selection) (log enrichment); library NNK1; higher = more nucleation; inactive = no reads after selection
Mark fulfilled for reported amyloid nucleation score of 0.2 or greater; mark not fulfilled for anything smaller.

substance	answer label
AYIVNIELGNRTS	fulfilled
CLGHISVMNVTASNANYHFS	fulfilled
AYSSARHFFTLTFKEIRFGR	not fulfilled
SRRSYSYFGIIICVNCSDTS	fulfilled
VRLSFPKRLSISSAVCNRGS	fulfilled
CTLKWLTF	fulfilled
VKHCQFR	fulfilled
VPVGRWRSWICVRIRL	fulfilled
SWRLMIRYVDTPNSWNFSTM	not fulfilled
VHTGLVSEIRRDKREGAYPE	not fulfilled
CISLFFVKCGRQAAHPQSRR	fulfilled
KVGLDIWGASGTN	fulfilled
GLGFTGWF	fulfilled
LYMPSGNIFG	fulfilled
WLYMRGPKVVRSCREITARA	fulfilled
RIFLSVLLLMTVNVSVWPCH	not fulfilled
EGQCSNIVSKLAPSKIPYLR	not fulfilled
FKSYCVGLHDYGP	fulfilled
YAGVRLWRRVWRAKTACSVA	not fulfilled
TYLRPWPFTVLLIWRRYSCL	fulfilled
LGTTDPYVYSIIMYAFLWIY	fulfilled
HVYCLRWRYC	not fulfilled
TGSHLPRDGSVSKCVFRY	fulfilled
VHIPHDCISAIVFRSSAAIS	not fulfilled
LGVRRPQEISCHADHASRWL	not fulfilled
TYPYRPLHSPFTNRFLSPNG	not fulfilled
YFVQGNMNLSHCTCWCGNRT	fulfilled
PLLEATNCDLHGLVRLLMRF	fulfilled
KNQKMVYTRIGLPGFG	not fulfilled
ISTDPWAAHYNRTHIQ	fulfilled
GFKVVDTAWFL	not fulfilled
FSGGGNITACGCV	not fulfilled
KLQIPLGQVSLGSKVMKTGV	not fulfilled
